Target: T1, Cas6-1 (Saccharolobus/Sulfolobus solfataricus P2, UniProt Q97Y96 1-287)
T1 sequence: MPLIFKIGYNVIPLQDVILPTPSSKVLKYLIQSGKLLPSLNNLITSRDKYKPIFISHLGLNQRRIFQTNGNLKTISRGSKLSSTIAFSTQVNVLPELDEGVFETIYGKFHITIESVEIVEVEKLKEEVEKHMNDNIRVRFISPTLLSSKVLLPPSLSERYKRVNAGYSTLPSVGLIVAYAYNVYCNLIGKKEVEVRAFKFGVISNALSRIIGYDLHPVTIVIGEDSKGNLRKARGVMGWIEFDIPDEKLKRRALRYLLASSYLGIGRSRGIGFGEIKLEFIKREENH
Assay: EMSA; 20 C; apparent Kd, no intermediate bands; EMSA: NR buffer (composition not in material) with 2 uM BSA, 0.5 nM RNA (legend: 1 nM), 15 min at 20 C, 6% native PAGE in 1x TBE; fluorescence quenching at 25 C, buffer not in material
Details: protein: recombinant; chain copies: 2; label: 5'-32P
Result Type: Kd (nM)

[[record]]
binder = "GAUUAAUCCCAAAAGGAAUUGAAAG (ssRNA) [AB-repeat RNA (32P)]"
measured = 350

